# experimentNotes: Inhibition of Influenza B virus (B/Perth/211/2001) recombinant wild type neuraminidase expressed in Sf21 insect cells after 60 mins by MUNANA based assay
measurementKind: IC50

Which IC50 is reported for this compound? O=C(O)C1(F)O[C@H]([C@H](O)[C@H](O)CO)[C@H](O)[C@@H](O)C1F (stereo partly specified) 37.7 µM

* * *

# experimentNotes: Inhibition of Influenza B virus B/Gifu/11/2005 wild type neuraminidase expressed in Sf21 insect cells preincubated for 30 mins measured after 60 mins by MUNANA based assay
measurementKind: Ki (nM)
The answer is to be given in nM; state only the numeric part.

Which Ki is reported for this molecule? CCC(CC)[C@H](NC(C)=O)[C@@H]1[C@H](O)[C@@H](C(=O)O)C[C@H]1NC(=N)N [PERAMIVIR ANHYDROUS] 0.3
